Where these numbers come from: paper PMC5829263

# ASSAYED_TARGET: recombinant human arginase 1 (Homo sapiens, UniProt P05089)
# Sequence (P05089 whole entry): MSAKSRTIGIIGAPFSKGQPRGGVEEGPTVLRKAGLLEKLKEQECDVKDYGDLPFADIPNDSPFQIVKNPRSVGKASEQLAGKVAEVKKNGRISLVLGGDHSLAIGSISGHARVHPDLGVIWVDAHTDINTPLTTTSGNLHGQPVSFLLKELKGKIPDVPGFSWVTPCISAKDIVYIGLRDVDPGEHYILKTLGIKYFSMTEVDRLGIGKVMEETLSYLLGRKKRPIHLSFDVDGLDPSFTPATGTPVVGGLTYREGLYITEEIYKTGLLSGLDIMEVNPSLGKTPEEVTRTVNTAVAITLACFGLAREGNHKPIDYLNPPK
# MEASUREMENT_PROTOCOL: Arginase 1 inhibition, UPLC-MS measurement of ARG to ORN conversion in HEK293T cell lysate;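 note: arginase 1–expressing HEK293T lysate at 0.05 mg/mL in pH 7.4 phosphate buffer, inhibitor preincubated 5 min with enzyme, then reaction started by adding ARG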
# CONDITION_CONTEXT: read-out: % of control activity at the corresponding [Inhibitor] ± SE, arginase 1; ARG 100 µM; inhibitor 10 µM; mean of two experiments
REPORTED_PROPERTY: remaining activity at 10 µM

- NCCCCN=C(N)N: 82%
- O=C(O)[C@@H]1CCCN1: 110%
- [H]/N=C(/NC)NCCC[C@H](N)C(=O)O: 104%
- NCCCC[C@H](N)C(=O)O: 89%
